- TGT: Gal-8N (Homo sapiens)
- Construct: consisting of residues 4-158 was produced by Lund Protein Production Platform; made in house; host or cells: E. coli TUNER(DE3)
- Sequence (O00214 4-158): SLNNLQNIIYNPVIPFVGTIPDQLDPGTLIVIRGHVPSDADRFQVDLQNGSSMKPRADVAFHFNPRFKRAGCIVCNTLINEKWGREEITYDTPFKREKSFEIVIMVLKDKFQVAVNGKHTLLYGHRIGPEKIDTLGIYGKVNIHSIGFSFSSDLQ
- PROTOCOL: isothermal titration calorimetry (ITC), binding to Gal-8N
- DETAILS: TRIS buffer
EXPERIMENTAL ENDPOINT: Kd
Answer format: number, then unit.

Name the recorded Kd for Cn1c(CO[C@@H]2[C@@H](O)[C@@H](Sc3ccc(Cl)c(Cl)c3)O[C@H](CO)[C@@H]2O)nc2ccc(C(=O)O)cc21 [Compound 1, reference compound] .
4.5 µM

* * *

- TGT: Gal-8C (Homo sapiens)
- Construct: than to the C-terminal domain (Gal-8C)
- Sequence (O00214 187-317 limits assumed): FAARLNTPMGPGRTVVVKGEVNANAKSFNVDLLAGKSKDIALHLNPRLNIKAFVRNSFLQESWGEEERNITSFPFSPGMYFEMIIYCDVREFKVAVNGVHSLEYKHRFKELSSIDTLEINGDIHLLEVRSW
- PROTOCOL: competitive fluorescence polarisation assay, Gal-8C
- Assay type: binding
- DETAILS: ratio of FP Kd values
Exercise: for every item that follows, state its recorded Gal-8C selectivity ratio Kd (Gal-8C)/Kd (Gal-8N).
One number for each entry.

Check out these entries, answers already filled in.
>  <COMPOUND>
COC(=O)c1cccc(-n2cc(CO[C@@H]3[C@@H](OCc4nc5ccc(C(=O)O)cc5n4C)[C@@H](O)[C@@H](CO)O[C@@H]3Sc3ccc(Cl)c(Cl)c3)nn2)c1 [Compound 15b]

>  <TEST VALUE>
126

$$$$
>  <COMPOUND>
Cn1c(CO[C@H]2[C@@H](O)[C@@H](CO)O[C@H](Sc3ccc(Cl)c(Cl)c3)[C@@H]2OCc2cn(-c3ccccc3C(=O)O)nn2)nc2ccc(C(=O)O)cc21 [Compound 16a]

>  <TEST VALUE>
346

$$$$
>  <COMPOUND>
Cc1ccc(CO[C@@H]2[C@@H](OCc3nc4ccc(C(=O)O)cc4n3C)[C@@H](O)[C@@H](CO)O[C@@H]2Sc2ccc(Cl)c(Cl)c2)cc1 [Compound 8c]

>  <TEST VALUE>
122

$$$$

Please state, for each entry, its recorded Gal-8C selectivity ratio Kd (Gal-8C)/Kd (Gal-8N).
1. CO[C@@H]1[C@@H](OCc2nc3ccc(C(=O)O)cc3n2C)[C@@H](O)[C@@H](CO)O[C@@H]1Sc1ccc(Cl)c(Cl)c1 [Compound 32]
2. C#CCO[C@@H]1[C@@H](OCc2nc3ccc(C(=O)O)cc3n2C)[C@@H](O)[C@@H](CO)O[C@@H]1Sc1ccc(Cl)c(Cl)c1 [Compound 11]
3. Cn1c(CO[C@H]2[C@@H](O)[C@@H](CO)O[C@H](Sc3ccc(Cl)c(Cl)c3)[C@@H]2OCc2ccccc2)nc2ccc(C(=O)O)cc21 [Compound 8a]

275
488
213
